target_desc: UniProt P10275
Sequence (P10275 1-920): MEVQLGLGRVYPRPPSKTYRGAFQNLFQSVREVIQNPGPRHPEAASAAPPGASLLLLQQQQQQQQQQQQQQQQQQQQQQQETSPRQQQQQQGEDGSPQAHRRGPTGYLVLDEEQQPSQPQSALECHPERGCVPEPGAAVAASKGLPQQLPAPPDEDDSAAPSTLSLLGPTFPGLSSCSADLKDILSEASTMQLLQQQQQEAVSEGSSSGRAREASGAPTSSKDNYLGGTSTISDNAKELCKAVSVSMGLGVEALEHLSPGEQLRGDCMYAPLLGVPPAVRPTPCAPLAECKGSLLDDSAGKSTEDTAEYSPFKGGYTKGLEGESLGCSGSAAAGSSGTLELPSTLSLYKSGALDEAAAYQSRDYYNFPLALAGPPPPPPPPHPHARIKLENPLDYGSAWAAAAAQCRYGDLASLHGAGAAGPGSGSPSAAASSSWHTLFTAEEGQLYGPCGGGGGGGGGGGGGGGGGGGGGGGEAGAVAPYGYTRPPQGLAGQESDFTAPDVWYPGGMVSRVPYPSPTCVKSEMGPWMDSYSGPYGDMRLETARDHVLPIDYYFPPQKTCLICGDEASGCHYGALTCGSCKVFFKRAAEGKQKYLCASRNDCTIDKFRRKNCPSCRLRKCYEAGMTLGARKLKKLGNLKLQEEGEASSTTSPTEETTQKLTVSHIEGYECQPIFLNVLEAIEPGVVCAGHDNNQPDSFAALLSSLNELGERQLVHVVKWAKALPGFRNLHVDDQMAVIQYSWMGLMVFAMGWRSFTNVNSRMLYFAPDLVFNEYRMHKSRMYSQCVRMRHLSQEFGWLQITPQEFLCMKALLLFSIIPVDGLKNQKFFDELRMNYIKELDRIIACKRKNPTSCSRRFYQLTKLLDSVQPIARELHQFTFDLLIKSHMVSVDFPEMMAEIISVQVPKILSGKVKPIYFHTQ
test_summary: Co-transfection assay, AR antagonist activity (CV-1 cells, in presence of DHT)
Type: cell-based
quantity_measured: IC50

Data request: Quick one: IC50 for O=c1cc(C(F)(F)F)c2cc(N3CCCCC3CCOCc3ccccc3)ccc2[nH]1 (racemic) ?
Data returned: > 10 µM
